Provenance of the data: paper PMC7698453

target: α-Glucosidase type I (EC 3.2.1.20 from Saccharomyces cerevisiae) (Saccharomyces cerevisiae, UniProt P53341)
Sequence (P53341 whole entry): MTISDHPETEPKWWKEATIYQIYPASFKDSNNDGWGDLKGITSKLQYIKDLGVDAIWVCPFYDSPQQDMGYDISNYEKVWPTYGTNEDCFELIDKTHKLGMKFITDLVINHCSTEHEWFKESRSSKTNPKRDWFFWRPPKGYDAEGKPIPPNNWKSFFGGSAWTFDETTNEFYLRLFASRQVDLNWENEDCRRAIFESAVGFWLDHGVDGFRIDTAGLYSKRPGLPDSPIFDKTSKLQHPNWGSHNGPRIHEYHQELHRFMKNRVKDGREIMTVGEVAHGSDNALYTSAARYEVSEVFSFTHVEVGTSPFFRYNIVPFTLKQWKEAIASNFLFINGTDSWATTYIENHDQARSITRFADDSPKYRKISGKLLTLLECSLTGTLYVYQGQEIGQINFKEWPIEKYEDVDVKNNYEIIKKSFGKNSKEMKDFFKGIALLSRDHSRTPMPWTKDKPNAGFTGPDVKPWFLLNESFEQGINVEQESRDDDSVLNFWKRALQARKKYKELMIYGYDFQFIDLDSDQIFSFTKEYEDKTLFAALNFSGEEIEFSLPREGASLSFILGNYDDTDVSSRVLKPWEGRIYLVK
quantity-name: pIC50
Numbers only, as −log10 of the molar value.

pIC50 recorded for this compound, O=C1c2ccc(O)cc2C(=O)c2c(O)ccc(O)c21 [Compound 3, 1,4,6-trihydroxyanthracene-9,10-dione] , is 3.78

----------
assay: Sulforhodamine B cytotoxicity assay, MCF7; type: cell-based; settings: human, MCF7 breast cancer cells; SRB assay, tested 1-30 µM
quantity-name: IC50 at 3 days

CC1(C)C=Cc2c(ccc(C(=O)/C=C/c3ccc(OCc4ccccc4)cc3)c2O)O1    > 30 µM
COC(=O)C(Cc1ccc2c(c1OC)C(=O)c1cccc(OC)c1C2=O)C(=O)OC    > 30 µM
O=C1c2ccc(O)cc2C(=O)c2c(O)ccc(O)c21 [Compound 3, 1,4,6-trihydroxyanthracene-9,10-dione]    > 30 µM

With those in mind, consider the next compound.
IC50 at 3 days recorded for this compound, COc1ccc(/C=C/C(=O)c2ccc3c(c2O)C=CC(C)(C)O3)cc1 , is 23.7 µM
